Experimental Target: T1, soluble heterodimeric hCD3ε/δ.mFc protein (human)
T1 construct: also called soluble human CD3; soluble heterodimeric CD3 protein
T1 chain 1: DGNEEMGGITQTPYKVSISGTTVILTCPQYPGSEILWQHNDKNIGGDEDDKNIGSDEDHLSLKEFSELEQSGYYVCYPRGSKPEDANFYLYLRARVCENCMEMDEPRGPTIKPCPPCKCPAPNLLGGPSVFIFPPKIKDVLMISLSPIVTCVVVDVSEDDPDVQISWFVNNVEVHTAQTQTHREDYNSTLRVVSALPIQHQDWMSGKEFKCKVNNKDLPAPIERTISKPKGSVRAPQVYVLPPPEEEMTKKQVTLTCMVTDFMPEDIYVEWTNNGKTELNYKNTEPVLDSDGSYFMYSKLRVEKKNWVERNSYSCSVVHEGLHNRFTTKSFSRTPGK
T1 chain 2: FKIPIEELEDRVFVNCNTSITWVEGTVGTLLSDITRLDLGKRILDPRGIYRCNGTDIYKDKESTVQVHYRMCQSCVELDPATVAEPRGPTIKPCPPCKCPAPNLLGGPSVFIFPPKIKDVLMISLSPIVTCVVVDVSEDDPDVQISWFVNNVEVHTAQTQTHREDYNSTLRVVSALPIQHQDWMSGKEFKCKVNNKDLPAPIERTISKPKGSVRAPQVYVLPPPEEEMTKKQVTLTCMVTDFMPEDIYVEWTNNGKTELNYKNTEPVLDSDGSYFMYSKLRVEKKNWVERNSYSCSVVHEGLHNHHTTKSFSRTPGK
Assay Remarks: SPR MASS-1, 37 C, antigen-capture (hCD3ε/δ.mFc captured), antibody injected
Catalogue of T½ values
Expressed in min, but write only the number.

Lookup: Return reported T½; argument: BSPSMA/CD3-1700 (bispecific antibody, IgG4, V domains shown, modified (chimeric) IgG4 Fc domain; also called PSMA-VH-11810 x CD3-VH-G17) VH 1: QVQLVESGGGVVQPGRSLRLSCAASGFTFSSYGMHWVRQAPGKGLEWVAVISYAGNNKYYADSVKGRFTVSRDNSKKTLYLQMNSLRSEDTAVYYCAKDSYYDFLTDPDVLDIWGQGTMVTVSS VH 2: EVQLVESGGGLVQPGRSLRLSCAASGFTFDDYSMHWVRQAPGKGLEWVSGISWNSGSKGYADSVKGRFTISRDNAKNSLYLQMNSLRAEDTALYYCAKYGSGYGKFYYYGMDVWGQGTTVTVSS VL: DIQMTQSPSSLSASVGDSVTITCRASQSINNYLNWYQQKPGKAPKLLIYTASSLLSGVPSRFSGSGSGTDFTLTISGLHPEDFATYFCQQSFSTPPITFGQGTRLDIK
Found: 3.8

Lookup: Reported T½, binder BSPSMA/CD3-1300 (bispecific antibody, IgG4, V domains shown, modified (chimeric) IgG4 Fc domain; also called PSMA-VH-11810 x CD3-VH-G13) VH 1: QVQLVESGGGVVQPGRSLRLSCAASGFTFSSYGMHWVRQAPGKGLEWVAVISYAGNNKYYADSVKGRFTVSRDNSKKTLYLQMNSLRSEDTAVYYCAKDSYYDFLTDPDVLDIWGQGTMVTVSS VH 2: EVQLVESGGGLVQPGRSLRLSCAASGFTFDDYSMHWVRQAPGKGLEWVSGISWNSGSIGYADSVKGRFTISRDNAKNSLYLQMNSLRAEDTALYYCAKYGSGYGKFYYYGLDVWGQGTTVTVSS VL: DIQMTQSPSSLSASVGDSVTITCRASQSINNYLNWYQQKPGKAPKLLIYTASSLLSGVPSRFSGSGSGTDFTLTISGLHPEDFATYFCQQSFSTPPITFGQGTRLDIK : ____
Found: 4.7

Measured values drawn from patent US20190127480A1 for this set.
